Test: VP16 transactivation reporter inhibitors, counter-screen for LRH-1 inverse agonist project, cell-based, luminescence, high throughput (AID 651615)
Settings: Gal4-VP16 luciferase reporter cells, at 3.6 µM, active compounds read high
READOUT: inhibition (%)
Number only, in %; omit the unit.

Query: For CC(C)(C)c1ccc(Oc2ccc(N)cc2)cc1 , write its inhibition.
Response: 60.1

Query: Quick one: give measured inhibition for CC[C@H]1CN2CCc3cc(OC)c(OC)cc3[C@@H]2C[C@@H]1C[C@H]1NCCc2cc(OC)c(OC)cc21
Response: 96.4

Query: Quickly give me recorded inhibition for C=CC(=O)N1C/C(=C/c2ccc(Cl)cc2)C(=O)/C(=C\c2ccc(Cl)cc2)C1
Response: 65.8

Query: Look up and report measured inhibition for this entry: NC(=O)C1CCN(C(=O)COc2ccc3c4c(c(=O)oc3c2)CCCC4)CC1
Response: -6.57

Query: Given the compound c1ccc(-c2nc(NCC3CCCO3)c3oc4ccccc4c3n2)cc1 (stereo not given) , write its reported inhibition.
Response: -17.1
